# experimental.target: MTH1 (Homo sapiens)
# Construct: Full length p18 isoform MTH1 (M1-156) with an N-terminal 6-His TEV protease cleavable tag; 6-His (TEV-cleavable) (N, cleaved yes); made in house; host or cells: E. coli Gold BL21(DE3)
# assay.summary: MTH1 substrate Km determination (PPiLight pyrophosphate detection; malachite green coupled assay)
# Format: biochemical
# settings: this publication; 0.2 nM MTH1, substrate 0–300 μM
result.type: Km (µM)
Provide the reading as a plain figure in µM.

Solved cases below.
{"columns": ["molecule", "endpoint.unit", "Km"],
 "data": [
  ["Nc1[nH]c(=O)nc2c1ncn2[C@H]1C[C@H](O)[C@@H](COP(=O)(O)OP(=O)(O)OP(=O)(O)O)O1 [Compound 2-OH-dATP, 2-OH-dATP]", "µM", 14],
  ["Nc1nc2c(ncn2[C@H]2C[C@H](O)[C@@H](COP(=O)(O)OP(=O)(O)OP(=O)(O)O)O2)c(=O)[nH]1 [dGTP]", "µM", 420],
  ["Nc1ncnc2c1[nH]c(=O)n2[C@H]1C[C@H](O)[C@@H](COP(=O)(O)OP(=O)(O)OP(=O)(O)O)O1 [Compound 8-oxo-dATP, 8-oxo-dATP]", "µM", 7.6]
]}

Here is the next item to consider.
# input So what's the measured Km for this one? Nc1nc2c([nH]c(=O)n2[C@@H]2O[C@H](COP(=O)(O)OP(=O)(O)OP(=O)(O)O)[C@@H](O)[C@H]2O)c(=O)[nH]1 [Compound 8-oxo-rGTP, 8-oxo-rGTP]
# output 82

---

# experimental.target: MTH1 (Homo sapiens, UniProt P36639)
# Construct: Full length p18 isoform MTH1 (M1-156) with an N-terminal 6-His TEV protease cleavable tag; 6-His (TEV-cleavable) (N, cleaved yes)
# assay.summary: Biochemical IC50 for fragments (Fig 5)
result.type: IC50 (µM)
Provide the reading as a plain figure in µM.

Solved cases below.
{"columns": ["compound.string", "endpoint.unit", "IC50"],
 "data": [
  ["Cc1cc(OCCCO)nc(N)n1", "µM", 4.5],
  ["CNc1nc2c(ncn2C)c(=O)[nH]1", "µM", 59]
]}

# input So what's the measured IC50 for this one? `CNc1cc(=O)[nH]c(=O)[nH]1`
# output 1.5

---

# experimental.target: Histidine-tagged MTH1 (isoform p18 (M1-V156)) (Homo sapiens)
# Construct: Histidine-tagged MTH1 (isoform p18 (M1-V156)) was immobilized; made in house; host or cells: E. coli Gold BL21(DE3)
# assay.summary: Surface plasmon resonance (SPR) equilibrium binding
# settings: steady-state, 1:1 Langmuir fit
Listing: pKd of selected compounds
Keep it numeric: pKd is minus log10 of the concentration in mol/L.

Solved cases below.
{"columns": ["compound", "pKd"],
 "data": [
  ["CNc1cc(=O)[nH]c(=O)[nH]1 [Compound 7]", 6.09],
  ["Cc1cc(OCCCO)nc(N)n1 [Compound 6]", 5.77]
]}

Here is the next item to consider.
# input So what's the measured pKd for this one? CNc1nc2c(ncn2C)c(=O)[nH]1 [Compound 3]
# output 4.62

---

# experimental.target: MTH1 (Homo sapiens)
# Construct: Full length p18 isoform MTH1 (M1-156) with an N-terminal 6-His TEV protease cleavable tag; 6-His (TEV-cleavable) (N, cleaved yes)
# assay.summary: 2D-NMR (1H-15N SOFAST-HMQC) titration, Kd from chemical shift perturbations
# settings: 100 μM 15N-MTH1, 298 K, pH 7.4
result.type: pKd
Keep it numeric: pKd is minus log10 of the concentration in mol/L.

Solved cases below.
{"columns": ["compound.string", "pKd"],
 "data": [
  ["CN(C)c1nc2c(ncn2C)c(=O)[nH]1", 2.66],
  ["CC(=O)Nc1ccc2c(c1)ncn2C", 4.02],
  ["CNc1nc2c(ncn2C)c(=O)[nH]1", 4.09],
  ["Cn1cnc2c(O)nc(N)nc21", 2.96]
]}

Here is the next item to consider.
# input So what's the measured pKd for this one? `Cn1c(=O)[nH]c2c(=O)[nH]c(N)nc21`
# output 3.40

---

Listing: pIC50 of selected compounds
# experimental.target: MTH1 (Homo sapiens, UniProt P36639)
# Construct: Full length p18 isoform MTH1 (M1-156) with an N-terminal 6-His TEV protease cleavable tag; 6-His (TEV-cleavable) (N, cleaved yes)
# assay.summary: Biochemical IC50 for fragments (Fig 5)
pIC50: −log10 of the molar value.

Solved cases below.
{"columns": ["compound.string", "result"],
 "data": [
  ["CC(=O)Nc1ccc2c(c1)ncn2C", "< 4.10"],
  ["Cn1c(=O)[nH]c2c(=O)[nH]c(N)nc21", "< 4.00"],
  ["CN(C)c1nc2c(ncn2C)c(=O)[nH]1", "< 4.00"]
]}

Here is the next item to consider.
# input So what's the measured pIC50 for this one? `Cn1cnc2c(O)nc(N)nc21`
# output < 4.00
